Target: CDK2/cyclin A (Homo sapiens)
Construct: made in house; host or cells: CDK2: insect cells (baculovirus); cyclin A: E. coli
Experiment: Inhibition of CDK2/cyclin A retinoblastoma kinase activity (Ki; % inhibition)
Type: biochemical
Conditions: at 0.03 μM

>  <Compound>
CC(O)CNC(=O)c1ccc(Nc2nc(N)c(C(=O)c3c(F)cccc3F)s2)cc1 (stereo not shown)

>  <Result units>
%

>  <CDK2 % Inhibition at 0.03 μM>
15

$$$$
>  <Compound>
CCCCC(CC)NC(=O)c1ccc(Nc2nc(N)c(C(=O)c3c(F)cccc3F)s2)cc1 (stereo not shown)

>  <Result units>
%

>  <CDK2 % Inhibition at 0.03 μM>
−30

$$$$
>  <Compound>
Nc1nc(Nc2ccc(C(=O)NCC3CC3)cc2)sc1C(=O)c1c(F)cccc1F

>  <Result units>
%

>  <CDK2 % Inhibition at 0.03 μM>
0

$$$$
>  <Compound>
Nc1nc(Nc2ccc(C(=O)Nc3ccccc3)cc2)sc1C(=O)c1c(F)cccc1F

>  <Result units>
%

>  <CDK2 % Inhibition at 0.03 μM>
4

$$$$
>  <Compound>
CC(NC(=O)c1ccc(Nc2nc(N)c(C(=O)c3c(F)cccc3F)s2)cc1)c1ccccc1 (stereo not shown)

>  <Result units>
%

>  <CDK2 % Inhibition at 0.03 μM>
25

$$$$
>  <Compound>
Nc1nc(Nc2ccc(C(=O)N3CCc4ccccc4C3)cc2)sc1C(=O)c1c(F)cccc1F

>  <Result units>
%

>  <CDK2 % Inhibition at 0.03 μM>
2

$$$$
>  <Compound>
Nc1nc(Nc2ccc(C(=O)NCCCN3CCCCC3)cc2)sc1C(=O)c1c(F)cccc1F

>  <Result units>
%

>  <CDK2 % Inhibition at 0.03 μM>
15

$$$$
>  <Compound>
CN(C)CCNC(=O)c1ccc(Nc2nc(N)c(C(=O)c3c(F)cccc3F)s2)cc1

>  <Result units>
%

>  <CDK2 % Inhibition at 0.03 μM>
23

$$$$
>  <Compound>
Nc1nc(Nc2ccc(C(=O)N3CCC(Cc4ccccc4)CC3)cc2)sc1C(=O)c1c(F)cccc1F

>  <Result units>
%

>  <CDK2 % Inhibition at 0.03 μM>
1

$$$$
>  <Compound>
Nc1nc(Nc2ccc(C(=O)NCCc3ccccc3)cc2)sc1C(=O)c1c(F)cccc1F

>  <Result units>
%

>  <CDK2 % Inhibition at 0.03 μM>
−19

$$$$
>  <Compound>
CSc1ccccc1NC(=O)c1ccc(Nc2nc(N)c(C(=O)c3c(F)cccc3F)s2)cc1

>  <Result units>
%

>  <CDK2 % Inhibition at 0.03 μM>
4

$$$$
>  <Compound>
Nc1nc(Nc2ccc(C(=O)NCCc3ccc(Cl)cc3Cl)cc2)sc1C(=O)c1c(F)cccc1F

>  <Result units>
%

>  <CDK2 % Inhibition at 0.03 μM>
7

$$$$
>  <Compound>
Nc1nc(Nc2ccc(C(=O)Nc3ccccc3N3CCOCC3)cc2)sc1C(=O)c1c(F)cccc1F

>  <Result units>
%

>  <CDK2 % Inhibition at 0.03 μM>
6

$$$$
>  <Compound>
Nc1nc(Nc2ccc(C(=O)Nc3cc(F)cc(F)c3)cc2)sc1C(=O)c1c(F)cccc1F

>  <Result units>
%

>  <CDK2 % Inhibition at 0.03 μM>
6

$$$$
>  <Compound>
Nc1nc(Nc2ccc(C(=O)NC3CCSC3=O)cc2)sc1C(=O)c1c(F)cccc1F (stereo not shown)

>  <Result units>
%

>  <CDK2 % Inhibition at 0.03 μM>
13

$$$$
>  <Compound>
CN(CC1OCCO1)C(=O)c1ccc(Nc2nc(N)c(C(=O)c3c(F)cccc3F)s2)cc1

>  <Result units>
%

>  <CDK2 % Inhibition at 0.03 μM>
10

$$$$
